Below: a set of entries, each annotated with reported MIC.
- Tested on: Clostridium perfrigens ATCC 3624
- measurementProtocol: Bacteriostatic power in solid medium (MIC), anaerobic
- Assay type: cell-based
- testContext: Clostridium, ATCC3624, LRP 206, read-out: minimum inhibiting concentration
Report the figure in µg/mL without appending any unit label.

>>> recordedvalue("CO[C@H]1C[C@H](O[C@H]2[C@H](C)[C@@H](O[C@@H]3O[C@H](C)C[C@H](N(C)C)[C@H]3O)[C@@H](C)C[C@@]3(CO3)C(=O)[C@H](C)[C@@H](O)[C@@H](C)[C@@H](C)OC(=O)[C@@H]2C)O[C@@H](C)[C@@H]1O [oleandomycin, reference compound]")
3.12

Incoming: Give the measured MIC for CC[C@H]1OC(=O)[C@H](C)[C@@H](O[C@H]2C[C@H](OC)[C@@H](O)[C@H](C)O2)[C@H](C)[C@@H](O[C@@H]2O[C@H](C)C[C@H](N(C)C)[C@H]2O)[C@](C)(O)C[C@](C)(O)C(=O)[C@H](C)[C@@H](O)[C@H]1C
Outgoing: 25

Incoming: Could you please provide reported MIC for CO[C@H]1C[C@H](O[C@H]2[C@H](C)[C@@H](O[C@@H]3O[C@H](C)C[C@H](N(C)C)[C@H]3O)[C@](C)(O)C[C@@H](C)C(=O)[C@H](C)[C@@H](O)[C@@H](C)[C@@H](CCO)OC(=O)[C@@H]2C)O[C@@H](C)[C@@H]1O ? Thanks!
Outgoing: 6.25

Incoming: Output measured MIC for this item: CC[C@H]1OC(=O)[C@H](C)[C@@H](O[C@H]2C[C@@](C)(OC)[C@@H](O)[C@H](C)O2)[C@H](C)[C@@H](O[C@@H]2O[C@H](C)C[C@H](N(C)C)[C@H]2O)[C@](C)(O)C[C@@H](C)C(=O)[C@H](C)[C@@H](O)[C@]1(C)O [Erythromycin A, reference compound]
Outgoing: 1.56

Incoming: Supply reported MIC belonging to this compound: CC[C@H]1OC(=O)[C@H](C)[C@@H](O[C@H]2C[C@H](OC)[C@@H](O)[C@H](C)O2)[C@H](C)[C@@H](O[C@@H]2O[C@H](C)C[C@H](N(C)C)[C@H]2O)[C@](C)(O)C[C@@H](C)C(=O)[C@H](C)[C@@H](O)[C@H]1C
Outgoing: 12.5

Incoming: Annotate the compound CC[C@H]1OC(=O)[C@H](C)[C@@H](O[C@H]2C[C@@](C)(OC)[C@@H](O)[C@H](C)O2)[C@H](C)[C@@H](O[C@@H]2O[C@H](C)C[C@H](N(C)C)[C@H]2O)[C@](C)(O)C[C@@H](C)C(=O)[C@H](C)[C@@H](O)[C@H]1C [Erythromycin B, reference compound] with its measured MIC.
Outgoing: 1.56

====

- Tested on: Staphylococcus aureus LRP 14
- measurementProtocol: Bacteriostatic power in solid medium (MIC), aerobic Gram positive
- Type: cell-based
- testContext: Staphylococcus aureus, LRP14, read-out: minimum inhibiting concentration
readoutType: MIC (µg/mL)
Kindly provide the numeric value in µg/mL only, without the unit symbol.

Incoming: Look up MIC of CC[C@H]1OC(=O)[C@H](C)[C@@H](O[C@H]2C[C@@](C)(OC)[C@@H](O)[C@H](C)O2)[C@H](C)[C@@H](O[C@@H]2O[C@H](C)C[C@H](N(C)C)[C@H]2O)[C@](C)(O)C[C@@H](C)C(=O)[C@H](C)[C@@H](O)[C@]1(C)O [Erythromycin A, reference compound] and report it.
Outgoing: 0.049

Incoming: Entry CC[C@H]1OC(=O)[C@H](C)[C@@H](O[C@H]2C[C@H](OC)[C@@H](O)[C@H](C)O2)[C@H](C)[C@@H](O[C@@H]2O[C@H](C)C[C@H](N(C)C)[C@H]2O)[C@](C)(O)C[C@](C)(O)C(=O)[C@H](C)[C@@H](O)[C@H]1C [P 15148] needs its MIC filled in; supply it.
Outgoing: 1.56

Incoming: Name the recorded MIC of the item CC[C@H]1OC(=O)[C@H](C)[C@@H](O[C@H]2C[C@H](OC)[C@@H](O)[C@H](C)O2)[C@H](C)[C@@H](O[C@@H]2O[C@H](C)C[C@H](N(C)C)[C@H]2O)[C@](C)(O)C[C@@H](C)C(=O)[C@H](C)[C@@H](O)[C@H]1C [P 15149] in your answer.
Outgoing: 0.78

Incoming: Give reported MIC value for CO[C@H]1C[C@H](O[C@H]2[C@H](C)[C@@H](O[C@@H]3O[C@H](C)C[C@H](N(C)C)[C@H]3O)[C@](C)(O)C[C@@H](C)C(=O)[C@H](C)[C@@H](O)[C@@H](C)[C@@H](CCO)OC(=O)[C@@H]2C)O[C@@H](C)[C@@H]1O [P 15150]
Outgoing: 3.12
